Reported melting point values for a set of compounds

// worked examples, melting point included
NS(=O)(=O)c1cc(OC(F)F)ccc1OC(F)F	73 to 74 °C
O=C(O)c1ccc(NCCCOc2ccccc2)cc1	159 to 162 °C
COc1ccc(Cn2ncc3c4c(cnc32)C(=O)NC4=O)cc1	196 to 197 °C

What does the record list as melting point for CCN1C(=O)NC(=C(C(C)=O)C(C)=O)C1=O ?
152 to 153 °C

Again, but for CC(=O)Nc1cc(CO)ccn1
145 °C

# repeat for CNc1cc(Cl)c(CO)c(Cl)c1
108 to 111 °C

Same question, N#Cc1cccc(Oc2ccccc2N)c1C#N this time
132 °C

For COC(=O)CCc1cnc(C)s1 then?
115 °C

Also check O=C(O)CN1C(=O)C(=CC=Cc2ccccc2)SC1=S
> 217 °C

Subsequent entry: COc1ccc(Sc2ccccc2CCl)cc1
76 to 78 °C

Also N#Cc1cnnc2ccccc12 ?
140 °C

###

assay.metric: melting point

Illustrative cases are given below, each with its answer.
CCC12CC(O)C(O)(c3ccccc3)CC1CC(O)c1cc(O)ccc12 (stereo not given)	185 to 187 °C
COc1ccc2c(c1)Sc1ccccc1CN2C=O	98 to 100 °C
c1ccc(-c2cn(-c3ncc(C4CCCCC4)c4ccccc34)cn2)cc1	169 to 170 °C
CC(C)(C)OC(=O)[C@H]1CCCN1CC(=O)N1CCC[C@@H]1C(=O)OC(C)(C)C	75 to 76 °C
CN(C)CCNc1ncc(-c2ccccc2)c(C(=O)N(C)Cc2cc(C(F)(F)F)cc(C(F)(F)F)c2)n1	108 to 110 °C
O=C1N(c2ccccc2Br)Cc2cnc(Nc3ccccc3)nc2N1CC1CCCCC1	200 to 202 °C
Cc1cccc(Cl)c1NS(=O)(=O)c1n[nH]c(NC=O)n1	291 to 300 °C
COC(=O)c1cccc([N+](=O)[O-])c1CBr	67 to 70 °C

Fill in: melting point of C[Si](C)(C)c1cc(CCC(=O)O)co1 is ___
25 °C

Please give the result for Cc1nc(-c2ccc(NC(=O)CCCC(=O)Nc3ccc(-c4noc(C)n4)cc3)cc2)no1 too.
235 to 237 °C

###

assay.metric: melting point

O=C(O)CCC1c2ccccc2C(=O)N1c1ccccc1 (configuration not stated)	186 to 187 °C
Nc1nc(-c2ccc(Cl)cc2)cc(C2CCN(C(=O)c3ccccc3)CC2)n1	129 to 130 °C
CCOC(=O)Cc1c(C(F)(F)F)nc(C)[nH]c1=O	108 to 110 °C

Moving on to the next compound.
I am curious: what melting point value has been reported for CCCOc1ccccc1-c1nc2nc(OC)ncc2c(=O)[nH]1 ?
231 °C

###

assay.metric: melting point

CSc1nnc(-c2ccc3ncn(-c4ccc(OC(F)F)cc4)c3c2)o1	202 to 203 °C
Cc1c(C)c2ccc(OCCCCN3CCN(c4cccc(Cl)c4Cl)CC3)nc2[nH]c1=O	161 to 163 °C
CCN[C@H]1CCC[C@H](Oc2ccc3[nH]ncc3c2C)C1 (relative stereo)	95 to 97 °C
COc1ccc2c(c1)cc1n2CCC(COC(C)=O)C1 (stereo not given)	98 to 100 °C
CCOP(=O)(CCNCc1c(N)c(=O)c1=O)OCC	130 to 132 °C

Value lookup for melting point; key = CCCCn1c(=O)n(CC=C(C)C)c(=O)c2c1ncn2S(=O)(=O)c1ccc(C)cc1
130 to 135 °C

Param item: COc1ccc(-c2ccc3cnc(Nc4ccc(N5CCN(C)CC5)cc4OC)nn23)cn1
170 to 173 °C

Data origin, for the record: a melting point compilation (Tetko et al.; mined from patent text by program, amines drawn as free bases though some values may be those of a salt)
